Tested on: ESBL-expressing Enterobacteriaceae (n = 33)
EXPERIMENT_DESCRIPTION: Broth microdilution MIC, ceftibuten/Compound 2 vs IV comparators
Assay type: cell-based
TEST_PARAMETERS: ESBL-expressing (n = 33)
compounds and their reported Number of strains at MIC value 16 mg/L
# respond with the number and nothing more

CN(C)c1cc(NC(=O)CNC(C)(C)C)c(O)c2c1C[C@H]1C[C@H]3[C@H](N(C)C)C(O)=C(C(N)=O)C(=O)[C@@]3(O)C(O)=C1C2=O; 0
Nc1nc(/C(=C/CC(=O)O)C(=O)N[C@@H]2C(=O)N3C(C(=O)O)=CCS[C@H]23)cs1 [Ceftibuten, ceftibuten, reference compound]; 1
NC[C@H]1O[C@H](O[C@H]2[C@H](O)[C@@H](O[C@H]3O[C@H](CO)[C@@H](O)[C@H](N)[C@H]3O)[C@H](N)C[C@@H]2N)[C@H](N)C[C@@H]1O; 4

Turning now to a further record.
Any idea what Number of strains at MIC value 16 mg/L was measured for C[C@@H](O)[C@H]1C(=O)N2C(C(=O)O)=C(S[C@@H]3CN[C@H](C(=O)N(C)C)C3)[C@H](C)[C@H]12 ?
0

====

Tested on: KPC-expressing Enterobacteriaceae (n = 77)
EXPERIMENT_DESCRIPTION: organism not typed
Assay type: cell-based
TEST_PARAMETERS: KPC-expressing (n = 77)
Known Number of strains at MIC value 8 mg/L of a selection of compounds
The reply should be a number, written without any unit.

These recorded examples may help you get a feel for the data.
Nc1nc(/C(=C/CC(=O)O)C(=O)N[C@@H]2C(=O)N3C(C(=O)O)=CCS[C@H]23)cs1 [Ceftibuten, ceftibuten, reference compound]; 13
CN(C)c1cc(NC(=O)CNC(C)(C)C)c(O)c2c1C[C@H]1C[C@H]3[C@H](N(C)C)C(O)=C(C(N)=O)C(=O)[C@@]3(O)C(O)=C1C2=O; 0
C[C@@H](O)[C@H]1C(=O)N2C(C(=O)O)=C(S[C@@H]3CN[C@H](C(=O)N(C)C)C3)[C@H](C)[C@H]12; 11

Consider now this further compound.
Return reported Number of strains at MIC value 8 mg/L; argument: NC[C@H]1O[C@H](O[C@H]2[C@H](O)[C@@H](O[C@H]3O[C@H](CO)[C@@H](O)[C@H](N)[C@H]3O)[C@H](N)C[C@@H]2N)[C@H](N)C[C@@H]1O
3

====

EXPERIMENT_DESCRIPTION: Excipient screening: solubility in SEDDS excipients
Format: physicochemical
TEST_PARAMETERS: Ethanol, 50 °C, organic solvent or mixture, thermodynamic from solid
PROPERTY_MEASURED: solubility

solubility lookup needed for CCOB1Oc2c(cccc2C(=O)OCOC(=O)C(CC)CC)C[C@@H]1NC(=O)CC [Compound 1-ethanolate] , thanks.
> 568 mg/mL

====

SYSTEM_TESTED: KPC-2 (Klebsiella pneumoniae, UniProt Q9F663)
EXPERIMENT_DESCRIPTION: Beta-lactamase enzyme inhibition (IC50)
PROPERTY_MEASURED: IC50 (µM)
Number in µM, nothing else.

I would be grateful if you could share the reported IC50 for CCC(=O)N[C@H]1Cc2cccc(C(=O)O)c2OB1O .
0.08

====

Tested on: OXA-48-expressing Enterobacteriaceae (n = 39)
PROPERTY_MEASURED: MIC90 (µg/mL)
The figure you give is taken to be in µg/mL; do not add the unit.

CN(C)c1cc(NC(=O)CNC(C)(C)C)c(O)c2c1C[C@H]1C[C@H]3[C@H](N(C)C)C(O)=C(C(N)=O)C(=O)[C@@]3(O)C(O)=C1C2=O [Tigecycline]; 2

Which MIC90 is reported with OXA-48-expressing Enterobacteriaceae (n = 39) for this entry: C[C@@H](O)[C@H]1C(=O)N2C(C(=O)O)=C(S[C@@H]3CN[C@H](C(=O)N(C)C)C3)[C@H](C)[C@H]12 [Meropenem] ?
8

The reported numbers originate from patent US12544395B2.
